# target_entity: MRP2 (Homo sapiens)
# assay_summary: [14C] erythromycin uptake in MDCK-MRP2 cells
quantity_name: Ki
# output: numeric value plus its unit

For record COc1c(N2CCNC(C)C2)c(F)cc2c(=O)c(C(=O)O)cn(C3CC3)c12 (centres unmarked) the listed Ki is 5370 µM

What the record says about CN(C)C(=O)CCSC(SCCC(=O)O)c1cccc(/C=C/c2ccc3ccc(Cl)cc3n2)c1 (centres unmarked) : Ki is 175 µM

* * *

# target_entity: P-gp (human MDR1) (Homo sapiens)
# Sequence (P08183 whole entry): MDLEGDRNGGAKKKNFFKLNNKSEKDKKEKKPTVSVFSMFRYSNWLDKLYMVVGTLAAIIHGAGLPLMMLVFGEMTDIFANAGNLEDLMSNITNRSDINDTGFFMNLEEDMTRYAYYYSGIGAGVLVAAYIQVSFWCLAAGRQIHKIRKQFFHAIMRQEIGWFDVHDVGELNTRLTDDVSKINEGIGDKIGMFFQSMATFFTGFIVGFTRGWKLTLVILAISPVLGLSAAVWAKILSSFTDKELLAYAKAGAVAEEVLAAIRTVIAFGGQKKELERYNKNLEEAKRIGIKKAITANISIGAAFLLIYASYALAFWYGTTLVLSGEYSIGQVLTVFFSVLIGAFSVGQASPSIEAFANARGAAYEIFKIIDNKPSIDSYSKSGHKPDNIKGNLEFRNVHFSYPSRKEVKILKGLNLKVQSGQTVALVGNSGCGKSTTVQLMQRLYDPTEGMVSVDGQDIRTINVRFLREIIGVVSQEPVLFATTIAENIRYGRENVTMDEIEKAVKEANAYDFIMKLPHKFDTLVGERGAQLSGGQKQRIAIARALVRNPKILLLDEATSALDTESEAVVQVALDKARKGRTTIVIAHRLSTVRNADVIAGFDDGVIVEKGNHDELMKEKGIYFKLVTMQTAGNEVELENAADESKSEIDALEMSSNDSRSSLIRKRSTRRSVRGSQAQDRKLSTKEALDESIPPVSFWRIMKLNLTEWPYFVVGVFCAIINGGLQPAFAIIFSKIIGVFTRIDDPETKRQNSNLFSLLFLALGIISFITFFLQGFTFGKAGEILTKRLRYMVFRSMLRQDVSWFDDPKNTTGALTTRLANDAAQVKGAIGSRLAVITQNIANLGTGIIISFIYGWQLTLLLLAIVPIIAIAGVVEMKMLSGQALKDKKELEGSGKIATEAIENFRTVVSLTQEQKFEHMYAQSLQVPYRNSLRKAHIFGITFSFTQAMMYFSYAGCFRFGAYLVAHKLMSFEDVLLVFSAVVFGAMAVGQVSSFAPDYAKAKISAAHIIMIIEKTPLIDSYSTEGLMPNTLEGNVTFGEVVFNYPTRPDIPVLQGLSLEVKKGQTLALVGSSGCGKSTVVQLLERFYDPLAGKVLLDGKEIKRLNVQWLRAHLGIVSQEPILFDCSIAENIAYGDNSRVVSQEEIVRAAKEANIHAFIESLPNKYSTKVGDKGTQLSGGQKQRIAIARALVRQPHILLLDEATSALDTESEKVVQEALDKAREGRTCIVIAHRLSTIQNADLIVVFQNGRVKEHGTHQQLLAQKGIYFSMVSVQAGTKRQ
# assay_summary: [14C] erythromycin uptake in MDCKII-MDR1 cells
quantity_name: Ki (µM)
Write it as a number; the unit µM goes unstated.

Ki in this record for COc1c(N2CCNC(C)C2)c(F)cc2c(=O)c(C(=O)O)cn(C3CC3)c12 (stereo not shown) : 385

* * *

# target_entity: MRP2 (Homo sapiens, UniProt Q92887)
# Sequence (Q92887 whole entry): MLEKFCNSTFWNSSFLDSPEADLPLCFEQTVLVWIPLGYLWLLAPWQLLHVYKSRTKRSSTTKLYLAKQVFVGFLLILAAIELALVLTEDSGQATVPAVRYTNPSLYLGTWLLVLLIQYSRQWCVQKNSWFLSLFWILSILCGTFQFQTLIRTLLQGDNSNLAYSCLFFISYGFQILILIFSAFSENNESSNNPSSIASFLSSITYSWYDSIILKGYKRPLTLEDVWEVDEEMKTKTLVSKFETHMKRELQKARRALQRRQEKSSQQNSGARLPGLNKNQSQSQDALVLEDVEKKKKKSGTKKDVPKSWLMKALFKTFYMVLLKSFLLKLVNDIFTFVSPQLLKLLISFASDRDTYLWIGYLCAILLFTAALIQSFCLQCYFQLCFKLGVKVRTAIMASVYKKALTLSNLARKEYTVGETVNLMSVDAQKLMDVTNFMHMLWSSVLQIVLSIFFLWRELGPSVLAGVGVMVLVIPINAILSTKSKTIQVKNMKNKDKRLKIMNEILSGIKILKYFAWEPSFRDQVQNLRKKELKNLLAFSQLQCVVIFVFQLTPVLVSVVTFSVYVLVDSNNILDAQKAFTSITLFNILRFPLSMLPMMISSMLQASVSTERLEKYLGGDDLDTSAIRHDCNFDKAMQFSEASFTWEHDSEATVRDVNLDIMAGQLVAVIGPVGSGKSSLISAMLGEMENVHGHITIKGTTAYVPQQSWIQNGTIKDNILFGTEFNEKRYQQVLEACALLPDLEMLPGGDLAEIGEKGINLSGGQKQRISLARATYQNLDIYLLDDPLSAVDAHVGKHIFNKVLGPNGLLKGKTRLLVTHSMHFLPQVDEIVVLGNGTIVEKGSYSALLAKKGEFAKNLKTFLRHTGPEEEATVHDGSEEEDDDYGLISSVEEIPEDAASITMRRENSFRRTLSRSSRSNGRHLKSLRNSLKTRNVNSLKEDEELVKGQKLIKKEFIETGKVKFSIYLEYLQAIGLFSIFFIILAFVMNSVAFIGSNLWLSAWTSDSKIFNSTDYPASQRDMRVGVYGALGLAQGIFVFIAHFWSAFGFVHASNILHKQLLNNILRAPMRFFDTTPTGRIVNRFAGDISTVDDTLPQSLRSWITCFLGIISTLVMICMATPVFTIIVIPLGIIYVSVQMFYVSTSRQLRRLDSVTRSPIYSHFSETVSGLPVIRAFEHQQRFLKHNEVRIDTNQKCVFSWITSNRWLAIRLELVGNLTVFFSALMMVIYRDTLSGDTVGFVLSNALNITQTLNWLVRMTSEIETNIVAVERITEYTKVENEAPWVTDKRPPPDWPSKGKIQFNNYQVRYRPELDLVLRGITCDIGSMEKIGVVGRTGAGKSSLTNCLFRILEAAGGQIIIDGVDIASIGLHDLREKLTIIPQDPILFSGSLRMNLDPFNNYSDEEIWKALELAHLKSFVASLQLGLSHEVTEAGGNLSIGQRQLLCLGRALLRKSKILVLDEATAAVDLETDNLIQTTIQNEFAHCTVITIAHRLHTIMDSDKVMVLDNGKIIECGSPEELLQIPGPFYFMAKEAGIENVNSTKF
# assay_summary: [14C] erythromycin uptake in MDCK-MRP2 cells
quantity_name: IC50 (µM)
// note: answer is a bare numeric in µM

For record COc1c(N2CCNC(C)C2)c(F)cc2c(=O)c(C(=O)O)cn(C3CC3)c12 (centres unmarked) the listed IC50 is 5230

Form field IC50, entry CN(C)C(=O)CCSC(SCCC(=O)O)c1cccc(/C=C/c2ccc3ccc(Cl)cc3n2)c1 (centres unmarked) : 188

* * *

# target_entity: P-gp (human MDR1) (Homo sapiens)
# assay_summary: [14C] erythromycin uptake in MDCKII-MDR1 cells
quantity_name: pIC50
In plain terms, pIC50 is the concentration in mol/L turned into minus its base-10 logarithm.

pIC50 measured on COc1c(N2CCNC(C)C2)c(F)cc2c(=O)c(C(=O)O)cn(C3CC3)c12 (stereo not shown) = 3.44
